Parameter log10 of EC50: see the listing below.
Biological target: LXRβ (Homo sapiens, UniProt P55055)
Construct: Co-transfection expression plasmids, comprising full-length LXRα (pCMX-h LXRα or LXRβ (pCMX-hLXRβ))
Sequence (P55055 1-460): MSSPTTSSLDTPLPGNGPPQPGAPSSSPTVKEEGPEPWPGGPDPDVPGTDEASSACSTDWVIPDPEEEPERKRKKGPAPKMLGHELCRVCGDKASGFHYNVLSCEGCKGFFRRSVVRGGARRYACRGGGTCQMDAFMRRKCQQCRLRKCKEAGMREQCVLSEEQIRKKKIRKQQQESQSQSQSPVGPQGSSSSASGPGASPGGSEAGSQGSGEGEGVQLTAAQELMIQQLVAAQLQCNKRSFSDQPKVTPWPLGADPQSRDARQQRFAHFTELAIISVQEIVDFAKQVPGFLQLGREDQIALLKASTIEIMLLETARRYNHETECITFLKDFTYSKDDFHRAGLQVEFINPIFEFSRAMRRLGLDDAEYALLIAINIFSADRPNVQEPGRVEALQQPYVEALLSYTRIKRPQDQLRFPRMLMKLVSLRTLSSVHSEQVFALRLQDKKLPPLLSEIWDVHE
Sequence (P19793 1-462 partner): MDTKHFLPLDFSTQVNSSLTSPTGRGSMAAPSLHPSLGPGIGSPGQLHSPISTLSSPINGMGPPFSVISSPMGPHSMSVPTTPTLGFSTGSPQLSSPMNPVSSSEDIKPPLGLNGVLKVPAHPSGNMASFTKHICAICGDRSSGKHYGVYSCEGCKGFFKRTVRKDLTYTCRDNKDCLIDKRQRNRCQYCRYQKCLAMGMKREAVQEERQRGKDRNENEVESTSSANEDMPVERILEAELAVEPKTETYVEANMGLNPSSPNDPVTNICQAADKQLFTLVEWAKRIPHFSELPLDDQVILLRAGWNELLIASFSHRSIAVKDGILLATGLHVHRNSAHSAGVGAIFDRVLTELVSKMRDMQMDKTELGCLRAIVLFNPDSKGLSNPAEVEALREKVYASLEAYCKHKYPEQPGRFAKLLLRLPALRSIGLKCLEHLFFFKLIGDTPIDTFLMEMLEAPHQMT
Experiment: LXR/LXRE co-transfection assay (luciferase reporter) in CV-1 cells, LXRβ
Conditions: CV-1 cells transfected with pCMX-hLXRβ and LXREx1-Tk-Luciferase, 20 hours incubation, read-out: LXRbeta agonism EC50
Experimental: To measure the ability of compounds to activate or inhibit the transcriptional activity of LXR in a cell based assay, the co-transfection assay was used. It has been shown that LXR functions as a heterodimer with RXR. […] Treatment of transfected cells with an LXR agonist increases the transcriptional activity of LXR, which is measured by an increase in luciferase activity. […]
PROPERTY_NAME: log10 of EC50 (log10 of the value in nM)

compound=Cc1nc(-c2ccc3c(c2)OC(F)(F)O3)c(-c2cc(-c3cc(F)c(CO)c(S(C)(=O)=O)c3)ccc2-c2cc(C(F)(F)C(N)=O)nn2C)o1 assay_result=1.96
compound=Cc1nc(-c2ccc3c(c2)OC(F)(F)O3)c(-c2cc(-c3cc(F)c(CO)c(S(C)(=O)=O)c3)ccc2-c2cc(CS(=O)(=O)N(C)C)nn2C)o1 assay_result=2.20
compound=Cc1nc(-c2ccc(OC(F)(F)F)cc2)c(-c2cc(-c3cc(F)c(CO)c(S(C)(=O)=O)c3)ccc2-n2nc(C(F)(F)F)cc2C2CC2)o1 assay_result=2.98
compound="Cc1nc(-c2ccc3c(c2)OC(F)(F)O3)c(-c2cc(-c3cc(F)c(CO)c(S(C)(=O)=O)c3)ccc2-c2cc(C(C)(C)C#N)nn2C)o1 [Example 97]" assay_result=1.68
compound=Cc1nc(-c2ccc(OC(F)F)nc2)c(-c2cc(-c3cc(F)c(CO)c(S(C)(=O)=O)c3)ccc2-n2cc(Cl)c(C(F)(F)F)n2)o1 assay_result=0.90
compound=Cn1nc(C(=O)NC(C)(C)C)cc1-c1ccc(-c2cccc(S(C)(=O)=O)c2)cc1-n1nncc1-c1ccc(OC(F)(F)F)cc1 assay_result=2.84
compound=Cc1nc(-c2ccc(C(F)(F)F)cc2)c(-c2cc(-c3cc(F)c(CO)c(S(C)(=O)=O)c3)ccc2-n2cc(Cl)c(C(F)(F)F)n2)o1 assay_result=2.11
compound=Cc1nc(-c2cc(-c3cccc(S(C)(=O)=O)c3)ccc2-n2nc(C(F)(F)F)cc2C)c(-c2ccc3c(c2)OC(F)(F)O3)o1 assay_result=0.95
compound=Cc1nc(-c2ccc(OC(F)(F)F)cc2)c(-c2cc(-c3cnc(CO)c(S(C)(=O)=O)c3)ccc2-n2cc(Cl)c(C(F)(F)F)n2)o1 assay_result=1.04
compound=Cc1nc(-c2cc(-c3cccc(S(C)(=O)=O)c3)ccc2-n2ccc(C(F)(F)F)n2)c(-c2ccc(Cl)cc2)o1 assay_result=2.12
compound=Cc1nc(-c2ccc3c(c2)OC(F)(F)O3)c(-c2cc(-c3cc(F)c(CO)c(S(C)(=O)=O)c3)ccc2-c2cc([C@H](C)C#N)nn2C)o1 assay_result=0.78
compound=Cc1nc(-c2ccc3c(c2)OC(F)(F)O3)c(-c2cc(-c3cccc(S(C)(=O)=O)c3)ccc2-n2ccc(C(F)(F)F)n2)o1 assay_result=1.82
compound=Cc1nc(-c2ccc(OC(F)(F)F)cc2)c(-c2cc(-c3cc(F)c(CO)c(S(C)(=O)=O)c3)ccc2-n2ccc(C(F)(F)F)n2)o1 assay_result=1.46
compound=CCC(F)(F)c1cc(-c2ccc(-c3cccc(S(C)(=O)=O)c3)cc2-n2nncc2-c2ccc(OC(F)(F)F)cc2)n(C)n1 assay_result=1.85
compound=Cc1nc(-c2ccc3c(c2)OC(F)(F)O3)c(-c2cc(-c3cccc(S(C)(=O)=O)c3)ccc2-c2cc(C(C)(C)O)nn2C)o1 assay_result=2.47
compound=Cc1nc(-c2ccc3c(c2)OC(F)(F)O3)c(-c2cc(-c3cc(F)c(CO)c(S(C)(=O)=O)c3)ccc2-c2cc(C(C)(C)C(C)(C)O)nn2C)o1 assay_result=1.43
compound=Cc1nc(-c2cc(-c3ccc(CO)c(S(C)(=O)=O)c3)ccc2-n2nc(C(F)(F)F)cc2C)c(-c2ccc3c(c2)OC(F)(F)O3)o1 assay_result=1.00
compound="Cc1nc(-c2ccc3c(c2)OC(F)(F)O3)c(-c2cc(-c3cccc(S(C)(=O)=O)c3)ccc2-c2cc(C(C)OC(N)=O)nn2C)o1 (stereo not drawn) [Example 130]" assay_result=2.05
compound=CS(=O)(=O)c1cc(-c2ccc(-n3ccc(C(F)(F)F)n3)c(-c3nc(C4CC4)oc3-c3ccc(OC(F)(F)F)cc3)c2)cc(F)c1CO assay_result=1.15
compound=Cn1nc(C(F)(F)CO)cc1-c1ccc(-c2cc(F)c(CO)c(S(C)(=O)=O)c2)cc1-n1nncc1-c1ccc(OC(F)(F)F)cc1 assay_result=2.96
compound=Cc1nc(-c2cc(-c3cccc(C4(C(N)=O)CC4)c3)ccc2-n2nc(C(F)(F)F)cc2Cl)c(-c2ccc(OC(F)(F)F)cc2)o1 assay_result=2.86
compound=Cn1nc(C(F)(F)C(N)=O)cc1-c1ccc(-c2cc(F)c(CO)c(S(C)(=O)=O)c2)cc1-n1nncc1-c1ccc(OC(F)(F)F)cc1 assay_result=3.37
compound=Cc1nc(-c2ccc(OC(F)(F)F)cc2)c(-c2cc(-c3cccc(S(C)(=O)=O)c3)ccc2-n2ccc(C(C)(C)O)n2)o1 assay_result=2.47
compound=Cc1nc(-c2ccc(OC(F)(F)F)cc2)c(-c2cc(-c3cccc(C(C)(C)C(N)=O)c3)ccc2-n2ccc(CC#N)n2)o1 assay_result=2.63
